Data origin, for the record: ChEMBL document CHEMBL1124717

# Protocol description: Partition coefficient (logP)
# Assay type: physicochemical
# Setup conditions: octanol/water
Measurement name: logP

Line notation	Experimental result
CCOC(=O)c1[nH]cc2nc3ccc(O)cc3c-2c1COC	1.44
CCOC(=O)c1ncc2[nH]c3ccc(OCc4ccccc4)cc3c2c1COC	3.97
